All figures here come from patent US11034658B2.

tested on: full-length human RORγt (GAL4-DBD-RORγt fusion) in HEK293T cells (Homo sapiens (Human), UniProt P51449)
Sequence (P51449 other isoform, or with tags, fused parts or gaps): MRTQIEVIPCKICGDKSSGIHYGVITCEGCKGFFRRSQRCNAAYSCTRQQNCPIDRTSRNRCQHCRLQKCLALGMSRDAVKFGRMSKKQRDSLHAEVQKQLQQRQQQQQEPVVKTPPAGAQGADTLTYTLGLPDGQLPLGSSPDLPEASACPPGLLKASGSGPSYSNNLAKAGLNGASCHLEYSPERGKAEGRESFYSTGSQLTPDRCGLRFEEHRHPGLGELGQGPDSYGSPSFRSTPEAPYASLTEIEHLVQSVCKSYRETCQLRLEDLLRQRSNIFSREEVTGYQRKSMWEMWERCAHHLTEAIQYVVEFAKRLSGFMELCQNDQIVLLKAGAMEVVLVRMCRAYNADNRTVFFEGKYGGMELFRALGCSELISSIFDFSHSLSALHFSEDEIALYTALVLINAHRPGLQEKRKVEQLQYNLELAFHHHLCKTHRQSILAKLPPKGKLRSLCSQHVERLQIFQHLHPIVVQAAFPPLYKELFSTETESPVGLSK
assay name: RORγt (full-length human) reporter assay, conditions A or B
Type: cell-based
assay context: HEK-293T; 3 μM compound concentration (footnote *); read-out: RORγt (FL) Reporter Assay A or B, % inhibition
property label: inhibition at 3 µM

Worked set:
{"molecule": "CCn1nc(C(=O)NC[C@H]2CC[C@H](S(C)(=O)=O)CC2)c(Cl)c1-c1cnc(CCCC(F)(F)F)cc1OC(F)F [Example 32]", "val": "129%"}
{"molecule": "CCn1nc(C(=O)NC[C@]2(O)CC[C@@H](S(C)(=O)=O)C[C@H]2O)c(Cl)c1-c1cnc(CC(C)(C)C(F)(F)F)cc1OC(F)F (stereo in doubt) [Example 3]", "val": "105%"}

From here, focus on the item given below.
In: Provide inhibition at 3 µM value for the following molecule: CCn1nc(C(=O)NC[C@H]2CC[C@H](S(C)(=O)=O)CC2)c(Cl)c1-c1cnc(CC(C)(C)C(F)(F)F)cc1C(F)F [Example 26]
Out: 88%
